B1: Hairpin Ribozyme (parent)
chain: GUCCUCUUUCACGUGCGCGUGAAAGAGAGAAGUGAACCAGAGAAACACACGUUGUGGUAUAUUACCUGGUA

# Variants of: B1
# Assay text: self-cleavage, relative activity (ratio to wild type); higher = more cleavage; co-transcriptional
Assay metric: self-cleavage

{"Variant annotation": "C10G G42A", "Assay metric": "self-cleavage", "Quantitative readout": 0.185}
{"Variant annotation": "U2A G27U", "Assay metric": "self-cleavage", "Quantitative readout": 0.124}
{"Variant annotation": "G21A A28U", "Assay metric": "self-cleavage", "Quantitative readout": 0.719}
{"Variant annotation": "C6A G17C", "Assay metric": "self-cleavage", "Quantitative readout": 0.424}
{"Variant annotation": "C3A G27U", "Assay metric": "self-cleavage", "Quantitative readout": 0.15}
{"Variant annotation": "A24G U33G", "Assay metric": "self-cleavage", "Quantitative readout": 0.0457}
{"Variant annotation": "U53A A64U", "Assay metric": "self-cleavage", "Quantitative readout": 0.143}
{"Variant annotation": "G15U A44G", "Assay metric": "self-cleavage", "Quantitative readout": 0.0895}
{"Variant annotation": "C4U G69C", "Assay metric": "self-cleavage", "Quantitative readout": 0.204}
{"Variant annotation": "A45C A64G", "Assay metric": "self-cleavage", "Quantitative readout": 0.259}
{"Variant annotation": "C10U C50G", "Assay metric": "self-cleavage", "Quantitative readout": 0.195}
{"Variant annotation": "G15U A36C", "Assay metric": "self-cleavage", "Quantitative readout": 0.839}
{"Variant annotation": "G15C A22C", "Assay metric": "self-cleavage", "Quantitative readout": 0.846}
{"Variant annotation": "A36G A59C", "Assay metric": "self-cleavage", "Quantitative readout": 0.102}
{"Variant annotation": "A22G G32C", "Assay metric": "self-cleavage", "Quantitative readout": 0.0859}
{"Variant annotation": "U20A A45C", "Assay metric": "self-cleavage", "Quantitative readout": 0.109}
{"Variant annotation": "A36G C50U", "Assay metric": "self-cleavage", "Quantitative readout": 0.407}
{"Variant annotation": "A31U G42A", "Assay metric": "self-cleavage", "Quantitative readout": 0.0839}
{"Variant annotation": "G25U A35U", "Assay metric": "self-cleavage", "Quantitative readout": 0.474}
{"Variant annotation": "C3G C66G", "Assay metric": "self-cleavage", "Quantitative readout": 0.0857}
{"Variant annotation": "C3U C37A", "Assay metric": "self-cleavage", "Quantitative readout": 0.315}
{"Variant annotation": "G15A U33G", "Assay metric": "self-cleavage", "Quantitative readout": 0.136}
{"Variant annotation": "A41G G51U", "Assay metric": "self-cleavage", "Quantitative readout": 0.552}
{"Variant annotation": "A24G A28C", "Assay metric": "self-cleavage", "Quantitative readout": 0.338}
{"Variant annotation": "A43U A64U", "Assay metric": "self-cleavage", "Quantitative readout": 0.266}
{"Variant annotation": "A31C G68A", "Assay metric": "self-cleavage", "Quantitative readout": 0.152}
{"Variant annotation": "C6A C18G", "Assay metric": "self-cleavage", "Quantitative readout": 0.43}
{"Variant annotation": "U60C A64C", "Assay metric": "self-cleavage", "Quantitative readout": 0.201}
{"Variant annotation": "C16A A44U", "Assay metric": "self-cleavage", "Quantitative readout": 0.133}
{"Variant annotation": "G29A G51A", "Assay metric": "self-cleavage", "Quantitative readout": 0.138}
{"Variant annotation": "C12G C48G", "Assay metric": "self-cleavage", "Quantitative readout": 0.0599}
{"Variant annotation": "C4G C12U", "Assay metric": "self-cleavage", "Quantitative readout": 0.187}
{"Variant annotation": "C18U U63C", "Assay metric": "self-cleavage", "Quantitative readout": 0.18}
{"Variant annotation": "G51U A64G", "Assay metric": "self-cleavage", "Quantitative readout": 0.544}
{"Variant annotation": "A23C U67C", "Assay metric": "self-cleavage", "Quantitative readout": 0.249}
{"Variant annotation": "U9C A23G", "Assay metric": "self-cleavage", "Quantitative readout": 0.814}
{"Variant annotation": "U2G A43C", "Assay metric": "self-cleavage", "Quantitative readout": 0.115}
{"Variant annotation": "U9G A47C", "Assay metric": "self-cleavage", "Quantitative readout": 0.406}
{"Variant annotation": "G34A A71G", "Assay metric": "self-cleavage", "Quantitative readout": 1.41}
{"Variant annotation": "A61G U70C", "Assay metric": "self-cleavage", "Quantitative readout": 0.146}
{"Variant annotation": "A24C U63C", "Assay metric": "self-cleavage", "Quantitative readout": 0.184}
